Recorded IC50 by entry
ASSAY TEXT: Inhibition of Saccharomyces cerevisiae alpha-glucosidase using p-nitro-phenyl-alpha-D-glucopyranoside as substrate preincubated with enzyme followed by substrate addition measured after 10 mins for every 2.5 to 5 mins

>>> result("O=c1cc(-c2ccc(O)c(O)c2)oc2cc(O)cc(O)c12")
"39.8 µM"
>>> result("O=C(Cc1ccc(O)cc1)O[C@H]1[C@@H](O)[C@H](OC(=O)Cc2ccc(O)cc2)[C@H](OC(=O)Cc2ccc(O)cc2)[C@@H](O)[C@@H]1O")
"61.2 µM"
>>> result("COC(=O)C[C@@H](CO)O[C@@H]1O[C@H](CO)[C@@H](O)[C@H](O)[C@H]1OC(=O)C(=O)c1ccc(O)cc1")
"165 µM"
>>> result("C[C@H]1O[C@H](O[C@H]2[C@H](O)[C@@H](O)[C@@H](O[C@H]3[C@H](O)[C@@H](O)C(O)O[C@@H]3CO)O[C@@H]2CO)[C@H](O)[C@@H](O)[C@@H]1N[C@H]1C=C(CO)[C@@H](O)[C@H](O)[C@H]1O (stereo partly specified)")
"180 µM"

Entry COC(=O)C[C@@H](CO)O[C@@H]1O[C@H](CO)[C@@H](O)[C@H](OC(=O)Cc2ccccc2)[C@H]1OC(=O)Cc1ccc(O)cc1 needs its IC50 filled in; supply it.
150 µM

Entry O=C1C[C@@H](O[C@@H]2O[C@H](CO)[C@@H](O)[C@H](OC(=O)Cc3ccccc3)[C@H]2OC(=O)Cc2ccc(O)cc2)CO1 needs its IC50 filled in; supply it.
145 µM
